- Test system: DLD-1
- assay.name: NCI tumour cell line growth inhibition, 48 h
Activity calls are given as the source filed them. Rule as the data show it: active = GI50 up to about 1.1 µM and inactive = higher.
recorded.endpoint: GI50

- compound: "O=C1OC(=O)C([Se]c2ccccc2)=C1[Se]c1ccccc1"
  GI50: "> 100 µM (inactive)"
- compound: "Cc1no[n+]([O-])c1/C=N/NS(=O)(=O)c1ccccc1"
  GI50: "> 100 µM (inactive)"
- compound: "Cc1cc(Cl)cc2c1NC(=O)C2(O)CC(=O)c1ccc(Br)cc1 (configuration not stated)"
  GI50: "50.8 µM (inactive)"
- compound: "Cc1ccc(NC(=O)C(=O)CC(=O)C2CCOC2=O)c(C)c1 (configuration not stated)"
  GI50: "> 100 µM (inactive)"
- compound: "C/C(=C1/N=C(c2cc([N+](=O)[O-])ccc2Cl)N(c2ccc(Br)cc2)C1=O)c1ccc(N(CCC#N)CCC#N)cc1C"
  GI50: "15.9 µM (inactive)"

Tested on DLD-1, the item Cc1cc(O)c2c3c1C(=O)Oc1c(CO)c(O)c(C(=O)O)c(c1O3)C=NN=Cc1c3c(c(CO)c(O)c1C(=O)O)OC(=O)c1c(C)cc(O)c(c1O3)C=NN=C2 showed GI50 equal to > 100 µM (inactive)

Summary line: O=S(=O)(O)c1cc(S(=O)(=O)O)c2cc(/N=N/c3ccc(/N=N/c4ccc(/C=C/c5ccc(/N=[N+](/[O-])c6ccc(/C=C/c7ccc(/N=N/c8ccc(/N=N/c9ccc%10cc(S(=O)(=O)O)cc(S(=O)(=O)O)c%10c9)cc8)cc7S(=O)(=O)O)c(S(=O)(=O)O)c6)cc5S(=O)(=O)O)c(S(=O)(=O)O)c4)cc3)ccc2c1 , DLD-1, reported GI50 = > 81.3 µM (inactive)

###

- Tested on: NCI-H460
- assay.name: NCI tumour cell line growth inhibition, 48 h
The source made the active and inactive calls. Cut-off read from the data, not from the text of the source: active = GI50 up to about 1.1 µM and inactive = higher.
Reported GI50 values for a set of compounds

// worked examples, GI50 included
- compound: "Cn1c(=O)c2nc(CCCc3ccc([N+](=O)[O-])cc3)[nH]c2n(C)c1=O"
  tested.on: "NCI-H460"
  GI50: "91.2 µM (inactive)"
- compound: "CCC(C)(C)c1ccc(Oc2cccc(C(=O)O)c2)cc1"
  tested.on: "NCI-H460"
  GI50: "44.4 µM (inactive)"
- compound: "O=C1NC(=O)C(=O)C(c2nc3ccccc3s2)C1=O"
  tested.on: "NCI-H460"
  GI50: "> 100 µM (inactive)"
- compound: "C[N+](C)(C)CC(CC(=O)[O-])C1CC1 (stereo unspecified)"
  tested.on: "NCI-H460"
  GI50: "> 100 µM (inactive)"

response.value for Cc1cc(C#N)c(Nc2ccccc2[N+](=O)[O-])s1 (field: GI50) = 36.6 µM (inactive)

Reported GI50 ( O=C(NC(Cc1ccc(Br)cc1)C(=O)O)c1ccc(I)cc1 (stereo unspecified) ) = > 100 µM (inactive)

###

- Tested on: BT-549
- assay.name: NCI tumour cell line growth inhibition, 48 h
Activity calls are given as the source filed them. Cut-off read from the data, not from the text of the source: active = GI50 up to about 1.1 µM and inactive = higher.
recorded.endpoint: GI50

Worked examples, 5 molecules total:
- molecule: "CCOc1ccc(/N=N/C2C(=O)N(C(=O)CC(=O)Nc3ccccc3OC)N=C2C)cc1 (stereo not given)"
  GI50: "13.2 µM (inactive)"
- molecule: "CC(=O)Nc1ccc(OC2=CCN(C)CC2)cc1"
  GI50: "> 100 µM (inactive)"
- molecule: "CC1=CCC([C@@](C)(O)CCCC(C)(C)N=C=S)CC1 (stereo not given in full)"
  GI50: "17.8 µM (inactive)"
- molecule: "CCCCCCCCCCCCCC[C@@H](O)[C@H]1CC[C@H]([C@H]2CC[C@H]([C@H](O)CCCCCC[C@@H](O)CC3=C[C@H](C)OC3=O)O2)O1"
  GI50: "> 25 µM (inactive)"
- molecule: "O=P1(N(CCCl)CCCl)Oc2ccc(Cl)cc2Sc2c(ccc(Cl)c2Cl)O1 (stereo not given)"
  GI50: "29.1 µM (inactive)"

Please fill in: GI50 reported for Nc1nc(N)c2cc(CNc3ccc(C(=O)NC(CC(=O)O)C(=O)O)c(Cl)c3)ccc2n1 (stereo not given) = 25.8 µM (inactive)

// field: GI50; key: NC(Cc1ccc(S(=O)(=O)O)cc1)C(=O)NC(Cc1ccc(S(=O)(=O)O)cc1)C(=O)NC(Cc1ccc(S(=O)(=O)O)cc1)C(=O)O (stereo not given) ; value = > 100 µM (inactive)

Documented GI50 of COc1cc(NS(C)(=O)=O)ccc1Nc1cc(C)nc2ccc3[nH]ccc3c12 : > 100 µM (inactive)

// COC(=O)C1=C2Nc3ccccc3C23CCN2C(O)C4(CC5CC67CCOC6CCN6CCC8(c9cccc(OC)c9N(C4)C58O)C67)C4OCCC4(C1)C23 (stereo not given) : GI50 value = > 100 µM (inactive)

The molecule listed as COc1cc2c(cc1OC)C(C1CC1)ON(C)CC2 (stereo not given) shows GI50 equal to > 100 µM (inactive)

For COC(=O)c1cc2c3c(c1)Oc1cc(C(=O)OC)cc4c1C3c1c(cc(C(=O)OC)cc1O4)O2 the molecule record lists GI50 as 20.5 µM (inactive)

Memo: CC(=O)OCCCCN1C(=O)CSc2ccccc21 , reported GI50: 4.2 µM (inactive)

According to the records, this molecule O=C(Nc1ccccc1)N1CCNC1=S displays GI50 of 65.5 µM (inactive)

Note to self: GI50 recorded for Cc1[nH]c(=O)nc(S)c1C(=O)Nc1cccc2cc3ccccc3cc12 was > 100 µM (inactive)

So, C=C(C)C12OC1[C@@]1(C)C(=CC2=O)CCC(O)[C@@H]1C (stereo not given in full) ? Its GI50 was 4.19 µM (inactive)

The molecule listed as COC(=O)c1nc2n(n1)-c1ccccc1C(=O)N(Cc1ccccc1)C2 has a reported GI50 of > 100 µM (inactive)

GI50 measured on Cc1nc2ccc(Br)cc2c(=O)n1-c1ccc(N)cc1 = 99.5 µM (inactive)

Short answer for COc1ccc(C(=O)/C=C/c2ccc(OCC#N)cc2)cc1OC : GI50 was 15.5 µM (inactive)

molecule O=C/C(=C(/Br)I)c1ccccc1 , GI50 observed: 2.42 µM (inactive)

The recorded GI50 for O=c1cccc2n1CC1CNC[C@H]2C1 [CYTISINICLINE] is > 100 µM (inactive)

Data provenance: ChEMBL document CHEMBL1201862
